Biological target: Vitamin D3 receptor (Rattus norvegicus)
Sequence (P13053 whole entry): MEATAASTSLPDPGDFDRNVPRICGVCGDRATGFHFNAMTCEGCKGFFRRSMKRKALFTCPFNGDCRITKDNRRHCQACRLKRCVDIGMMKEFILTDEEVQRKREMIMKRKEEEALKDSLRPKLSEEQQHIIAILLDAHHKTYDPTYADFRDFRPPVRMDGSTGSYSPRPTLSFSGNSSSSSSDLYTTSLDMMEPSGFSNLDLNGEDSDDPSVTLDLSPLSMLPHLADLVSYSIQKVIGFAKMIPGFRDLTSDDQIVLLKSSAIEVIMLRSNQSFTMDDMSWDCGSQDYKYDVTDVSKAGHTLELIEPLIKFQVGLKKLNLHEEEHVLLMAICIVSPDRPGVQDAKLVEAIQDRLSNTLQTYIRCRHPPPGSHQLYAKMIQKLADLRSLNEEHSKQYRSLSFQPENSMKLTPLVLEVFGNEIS
Assay: Activity at VDR in rat osteosarcoma cells assessed as 24-hydroxylase transcription by reporter gene assay
pEC50: −log10 of the molar value.

- compound: "C[C@H](CCCC(C)(C)O)C1CC[C@H]2/C(=C/C=C3/C[C@@H](O)C4=CCCO[C@@H]4C3)CCC[C@]12C (stereo partly specified)"
  target of assay: "Vitamin D3 receptor (Rattus norvegicus)"
  pEC50: 7.00
